From: patent US20150136150A1

experiment: Solvent miscibility and compatibility with octyl cyanoacrylate; assay type: physicochemical; set-up: key: V = slightly viscous; VV = viscous; VVV = very viscous; Lyr = layers; Pl = pale; Lt = light; Y = yellow; RX = reacts; Gry = grey; Brn = brown; Blk = black; details: 3 ml solvent + 3 ml OCA, 2 Day
measuredParameter: OCA compatibility, 2 Day

[[record]]
compound = "CCC(C)=O [Butanone]"
valuereported = "VV"

[[record]]
compound = "CCOC(C)=O [Ethyl acetate]"
valuereported = "V?"

[[record]]
compound = "CCCCCCC [Heptane]"
valuereported = "VV"

[[record]]
compound = "CC(=O)C(C)C [3-Methyl 2-butanone]"
valuereported = "VV"

[[record]]
compound = "C1CCOC1 [THF, tetrahydrofuran]"
valuereported = "VV"

[[record]]
compound = "C1CCCCC1 [Cyclohexane]"
valuereported = "VV"


---

experiment: Solvent compatibility with viscosity-increasing polymer, viscosity of solution: MMA; format: physicochemical; design: unit not given here; conditions: polymer added at 5% by weight, up to 3 days agitation
Item-by-item account of Viscosity of solution with MMA
measuredParameter: Viscosity of solution with MMA

[[record]]
compound = "CCOC(C)=O [Ethyl acetate]"
valuereported = 4.7

[[record]]
compound = "CC(C)=O"
valuereported = 2.4

[[record]]
compound = "C1CCOC1 [THF, tetrahydrofuran]"
valuereported = 5.3

[[record]]
compound = "C1COCCO1"
valuereported = 17


---

assay: Solvent miscibility and compatibility with ethoxyethyl cyanoacrylate; assay type: physicochemical; conditions: 3 ml solvent + 3 ml EECA, 7 Day
measuredParameter: EECA compatibility, 7 Day

[[record]]
smilesrepr = "CCCCCC"
valuereported = "2Lyr"

[[record]]
smilesrepr = "CC(=O)C(C)C"
valuereported = "LtGry"

[[record]]
smilesrepr = "CCCCCCC"
valuereported = "2Lyr"

[[record]]
smilesrepr = "C1CCCCC1"
valuereported = "2Lyr"


---

test: Solvent miscibility and compatibility with octyl cyanoacrylate; format: physicochemical; design: key: V = slightly viscous; VV = viscous; VVV = very viscous; Lyr = layers; Pl = pale; Lt = light; Y = yellow; RX = reacts; Gry = grey; Brn = brown; Blk = black; conditions: 3 ml solvent + 3 ml OCA, 7 Day
measuredParameter: OCA compatibility, 7 Day

[[record]]
compound = "CCC(C)=O"
valuereported = "VV"

[[record]]
compound = "CC(=O)C(C)C"
valuereported = "VV"

[[record]]
compound = "C1CCCCC1"
valuereported = "VV"

[[record]]
compound = "C1CCOC1 [THF, tetrahydrofuran]"
valuereported = "VV"

[[record]]
compound = "CCCCCCC"
valuereported = "VV"

[[record]]
compound = "CCOC(C)=O [Ethyl acetate]"
valuereported = "VV"

[[record]]
compound = "C1COCCO1"
valuereported = "VVV"


---

Items are presented alongside their recorded PPM dye soluble.
experiment: Colorant solubility in solvent; conditions: 10 g solvent added to 0.4 g D&C Violet #2, shaken 30 minutes, stood 30 minutes
measuredParameter: PPM dye soluble (PPM)

[[record]]
compound = "CCOC(C)=O [Ethyl acetate]"
unitspec = "PPM"
valuereported = 3400

[[record]]
compound = "C1CCCCC1"
unitspec = "PPM"
valuereported = 600

[[record]]
compound = "CC(=O)OC(C)C [t-propyl acetate]"
unitspec = "PPM"
valuereported = 2200

[[record]]
compound = "CCCCCC"
unitspec = "PPM"
valuereported = 500

